# target_entity: UniProt Q03145
# Sequence (Q03145 whole entry): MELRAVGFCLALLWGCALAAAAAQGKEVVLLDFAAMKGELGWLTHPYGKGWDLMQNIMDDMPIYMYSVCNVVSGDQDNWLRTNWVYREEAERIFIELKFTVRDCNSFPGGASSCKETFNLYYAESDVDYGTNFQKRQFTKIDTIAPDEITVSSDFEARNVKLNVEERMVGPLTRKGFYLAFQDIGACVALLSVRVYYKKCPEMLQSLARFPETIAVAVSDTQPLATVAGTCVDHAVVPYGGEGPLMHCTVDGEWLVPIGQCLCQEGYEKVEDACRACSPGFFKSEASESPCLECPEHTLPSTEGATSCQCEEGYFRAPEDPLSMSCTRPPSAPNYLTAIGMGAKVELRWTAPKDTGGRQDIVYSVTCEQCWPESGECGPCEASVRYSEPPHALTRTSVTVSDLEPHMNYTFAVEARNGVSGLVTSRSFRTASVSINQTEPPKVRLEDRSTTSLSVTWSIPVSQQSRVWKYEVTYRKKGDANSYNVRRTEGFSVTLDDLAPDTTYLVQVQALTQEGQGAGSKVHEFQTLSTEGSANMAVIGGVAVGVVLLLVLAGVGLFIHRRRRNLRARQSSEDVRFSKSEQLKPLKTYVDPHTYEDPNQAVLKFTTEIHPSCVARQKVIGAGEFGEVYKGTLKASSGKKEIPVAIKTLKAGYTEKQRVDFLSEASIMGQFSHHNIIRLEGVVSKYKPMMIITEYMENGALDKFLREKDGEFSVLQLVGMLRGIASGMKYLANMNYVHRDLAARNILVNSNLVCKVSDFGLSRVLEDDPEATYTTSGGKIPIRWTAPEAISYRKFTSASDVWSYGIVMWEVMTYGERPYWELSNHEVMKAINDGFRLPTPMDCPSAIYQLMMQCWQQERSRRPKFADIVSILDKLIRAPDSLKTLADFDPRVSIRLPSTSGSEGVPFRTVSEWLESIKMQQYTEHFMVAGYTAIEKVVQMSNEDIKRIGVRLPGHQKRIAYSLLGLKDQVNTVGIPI
# test_description: Displacement of biotinylated ephrin-A1-Fc from recombinant mouse c-terminal His6-tagged EphA2 Fc (Ala22 to Ala535 residues) preincubated for 1 hr followed by ephrin-A1-FC addition and measured after 4 hrs by ELISA
outcome_measure: IC50
State the result as a value with its unit after it.

Input: What does the record list as IC50 for C[C@H](CCC(=O)N[C@H](CC(=O)O)Cc1c[nH]c2ccccc12)[C@H]1CC[C@H]2[C@@H]3CC[C@@H]4C[C@H](OC(N)=O)CC[C@]4(C)[C@H]3CC[C@]12C ?
Output: 1.2 µM

Input: And then C[C@H](CCC(=O)N[C@H](CC(=O)O)Cc1c[nH]c2ccccc12)[C@H]1CC[C@H]2[C@@H]3CC[C@@H]4C[C@H](OC(=O)Nc5ccccc5)CC[C@]4(C)[C@H]3CC[C@]12C , what is it?
Output: 5.5 µM

Input: And then CCCCCCCCNC(=O)O[C@@H]1CC[C@@]2(C)[C@H](CC[C@@H]3[C@@H]2CC[C@]2(C)[C@@H]([C@H](C)CCC(=O)N[C@H](CC(=O)O)Cc4c[nH]c5ccccc45)CC[C@@H]32)C1 , what is it?
Output: 15 µM
